We begin with a simple list: items and their reported Ki.
Molecular target: norepinephrine transporter (NET) (Rattus norvegicus)
Sequence (Q63380 1-617): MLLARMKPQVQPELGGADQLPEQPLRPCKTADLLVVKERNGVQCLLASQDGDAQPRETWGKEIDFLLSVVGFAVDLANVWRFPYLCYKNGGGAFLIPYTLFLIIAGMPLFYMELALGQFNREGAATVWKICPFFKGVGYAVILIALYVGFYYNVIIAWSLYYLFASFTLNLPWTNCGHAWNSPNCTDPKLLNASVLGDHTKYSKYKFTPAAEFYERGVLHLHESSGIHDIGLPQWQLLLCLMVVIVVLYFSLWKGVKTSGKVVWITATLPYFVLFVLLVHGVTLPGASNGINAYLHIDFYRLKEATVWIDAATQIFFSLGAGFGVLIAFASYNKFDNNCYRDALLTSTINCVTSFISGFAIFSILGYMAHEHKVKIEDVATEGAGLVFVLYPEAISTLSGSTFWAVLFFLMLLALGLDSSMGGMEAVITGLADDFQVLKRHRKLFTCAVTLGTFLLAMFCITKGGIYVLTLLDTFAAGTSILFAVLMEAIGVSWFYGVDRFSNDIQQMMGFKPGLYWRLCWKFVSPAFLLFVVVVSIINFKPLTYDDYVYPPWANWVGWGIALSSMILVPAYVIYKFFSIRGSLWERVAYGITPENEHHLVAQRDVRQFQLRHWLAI
Assay: Competitive binding at the NET with [3H]nisoxetine
Parameter measured: Ki

[
  {
    "Smiles data": "COC(=O)[C@H]1[C@@H](c2cc(I)c(OC)c(I)c2)C[C@@H]2CC[C@H]1N2C",
    "Reading": "> 5 µM"
  },
  {
    "Smiles data": "COc1ccc([C@H]2C[C@@H]3CC[C@H]([C@H]2c2cc(-c4ccc(C)cc4)no2)N3C)cc1",
    "Reading": "> 3 µM"
  },
  {
    "Smiles data": "COc1ccc([C@H]2C[C@@H]3CC[C@H]([C@H]2C(=O)OC2CCC2)N3C)cc1",
    "Reading": "> 3 µM"
  }
]
